biological target: T1, Soluble heterodimeric CD3 protein (hCD3-epsilon/hCD3-delta) with either a human Fc tag (hFcΔAdp/hFc) or a … (human, UniProt P07766 23-126; P04234 22-105); assay: SPR Biacore 25C antigen-capture
T1 construct: also called hCD3ε/δ; not shown: Fc tag: human (hFcΔAdp/hFc)
T1 sequence (P07766 23-126 limits assumed, stated change not applied, chain 1 of 2): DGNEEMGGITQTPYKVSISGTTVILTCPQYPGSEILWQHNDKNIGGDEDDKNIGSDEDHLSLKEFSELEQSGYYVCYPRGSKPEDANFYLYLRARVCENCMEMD
T1 sequence (P04234 22-105 limits assumed, stated change not applied, chain 2 of 2): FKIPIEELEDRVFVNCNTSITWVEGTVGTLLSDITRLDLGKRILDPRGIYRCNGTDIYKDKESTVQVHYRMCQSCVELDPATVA
quantity-kind: T½ (min)

binder | quantity-kind | u | recorded-value
H2M2707N (antibody, mouse IgG2, V domains shown, H2M: mouse IgG2 Fc, human variable regions; divalent) VH: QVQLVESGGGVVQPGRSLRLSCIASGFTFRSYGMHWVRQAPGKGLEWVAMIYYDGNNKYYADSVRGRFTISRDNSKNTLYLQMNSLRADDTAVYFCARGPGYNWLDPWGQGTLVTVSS VL: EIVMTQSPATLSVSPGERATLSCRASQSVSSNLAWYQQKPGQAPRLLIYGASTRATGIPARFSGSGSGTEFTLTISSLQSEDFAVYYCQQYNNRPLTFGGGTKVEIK | T½ | min | 41
H1H5801B (antibody, human IgG1, V domains shown, H1H: human IgG1 Fc; divalent) VH: QVQLVQSGGGVVQPGGSLRLSCAASGFTFDDYAMHWVRQAPGKGLEWVSLISGDGGSTYYADSVKGRFTISRDNSKNSLYLQMNSLRTEDTALYYCAKDDSSSSWYYYYYGMDVWGRGTTVTVSS VL: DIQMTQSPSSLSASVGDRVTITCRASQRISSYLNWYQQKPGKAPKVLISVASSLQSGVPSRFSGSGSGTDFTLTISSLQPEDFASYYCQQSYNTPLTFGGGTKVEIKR | T½ | min | 10
H2M2691N (antibody, mouse IgG2, V domains shown, H2M: mouse IgG2 Fc, human variable regions; divalent) VH: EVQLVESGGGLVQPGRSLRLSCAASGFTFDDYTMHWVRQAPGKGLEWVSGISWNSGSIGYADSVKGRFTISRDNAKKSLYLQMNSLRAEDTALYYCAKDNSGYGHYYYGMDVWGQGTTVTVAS VL: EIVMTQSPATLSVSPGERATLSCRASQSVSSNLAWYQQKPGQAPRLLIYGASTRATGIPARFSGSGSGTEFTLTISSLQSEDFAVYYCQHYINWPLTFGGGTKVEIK | T½ | min | 1160
H2M3547N (antibody, mouse IgG2, V domains shown, H2M: mouse IgG2 Fc, human variable regions; divalent) VH: EAQLVESGGGLVQPGRSLRLSCTTSGFTFDDYTMHWVRQAPGKGLEWISDISWNGGTKGYADSVKGRFTISRDNAKNSLYLQMDSLRGEDTALYYCVKDKSGYGHFYFGLDVWGQGTTVTVSS VL: DIQMTQSPSSLTASVGDRVTFTCRASQSISRHLSWYQQKPGKAPKLLIYAASSLESGVPSRFSGSGSGTDFTLTISSLHPEDFATYYCQQSYSNPPITFGQGTRLEIK | T½ | min | 1160
H2M2706N (antibody, mouse IgG2, V domains shown, H2M: mouse IgG2 Fc, human variable regions; divalent) VH: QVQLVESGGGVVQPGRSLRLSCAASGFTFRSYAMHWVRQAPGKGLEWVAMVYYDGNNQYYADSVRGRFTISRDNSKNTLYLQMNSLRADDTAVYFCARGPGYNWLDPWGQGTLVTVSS VL: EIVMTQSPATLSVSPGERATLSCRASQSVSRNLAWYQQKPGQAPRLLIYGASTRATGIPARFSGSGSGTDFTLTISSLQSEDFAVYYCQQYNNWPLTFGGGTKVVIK | T½ | min | 38
